B1: glmS ribozyme (parent)
chain: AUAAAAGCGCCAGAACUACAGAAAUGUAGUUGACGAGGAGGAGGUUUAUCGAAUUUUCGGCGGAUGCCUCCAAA

variants of: B1; assay: self-cleavage kobs at 40 uM GlcN6P; higher = faster cleavage; RNA array; conditions: with glucosamine-6-phosphate
This sample holds only a part of the variants without activity.
PARAMETER_MEASURED: self-cleavage kobs at 40 uM GlcN6P

>  <MUTATION_ID>
U46G C58A

>  <self-cleavage kobs at 40 uM GlcN6P>
< 1e-05 s⁻¹

$$$$
>  <MUTATION_ID>
A48C C50A

>  <self-cleavage kobs at 40 uM GlcN6P>
< 1e-05 s⁻¹

$$$$
>  <MUTATION_ID>
A52U G59A

>  <self-cleavage kobs at 40 uM GlcN6P>
< 1e-05 s⁻¹

$$$$
>  <MUTATION_ID>
A64U C68A

>  <self-cleavage kobs at 40 uM GlcN6P>
< 1e-05 s⁻¹

$$$$
>  <MUTATION_ID>
U56G U65A

>  <self-cleavage kobs at 40 uM GlcN6P>
3.91e-05 s⁻¹

$$$$
>  <MUTATION_ID>
C16A A33U

>  <self-cleavage kobs at 40 uM GlcN6P>
< 1e-05 s⁻¹

$$$$

// self-cleavage kobs at 40 uM GlcN6P lookup, key: C58G A64G C68A
4.76e-05 s⁻¹

So what's the measured self-cleavage kobs at 40 uM GlcN6P for this one? G29A G35C A39G G41U G43C G62A A64U
< 1e-05 s⁻¹

Could you tell me which self-cleavage kobs at 40 uM GlcN6P is on file for C61G A64G ?
< 1e-05 s⁻¹

I would be grateful if you could share the reported self-cleavage kobs at 40 uM GlcN6P for G9A G29A U31A G35U A36C C70U .
< 1e-05 s⁻¹

Looking for the measured self-cleavage kobs at 40 uM GlcN6P of C11A G43U , can you help?
< 1e-05 s⁻¹

If you can, please state the reported self-cleavage kobs at 40 uM GlcN6P value of A15U A42C C68G .
< 1e-05 s⁻¹

Report self-cleavage kobs at 40 uM GlcN6P for U54G C70U please.
0.00112 s⁻¹

Param item = A39U C68U C71G ; retrieve measured self-cleavage kobs at 40 uM GlcN6P.
< 1e-05 s⁻¹

Which self-cleavage kobs at 40 uM GlcN6P is reported for this variant? G43C A52U
< 1e-05 s⁻¹

Value lookup for self-cleavage kobs at 40 uM GlcN6P; key = C34A A53C
< 1e-05 s⁻¹
